- Test system: 519858-162-T-J1-PDC complex spheroid growth, % test/control;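 also: seven day drug exposure begun three days after spheroid seeding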
- experiment notes: Anticancer human tumor 519858-162-T-J1-PDC patient-derived colon adenocarcinoma cell line growth inhibition [Asc]
- run conditions: curve of first compound; second compound 0.00949 µM
assay metric: IC50

# molecule, target of assay, IC50
data = [
    ("C=CC(=O)N1CCN(c2nc(=O)n(-c3c(C)ccnc3C(C)C)c3nc(-c4c(O)cccc4F)c(F)cc23)C(C)C1 (stereo not given) + CCN1C(C(=O)NC23CCC(C(=O)O)(CC2)CC3)C(c2cccc(Cl)c2F)C2(C(=O)Nc3cc(Cl)ccc32)C12CCCCC2", "519858-162-T-J1-PDC complex spheroid growth, % test/control", "> 10000 nM"),
    ("Cn1ncnc1[C@H]1c2n[nH]c(=O)c3cc(F)cc(c23)N[C@@H]1c1ccc(F)cc1 + CCN1C(C(=O)NC23CCC(C(=O)O)(CC2)CC3)C(c2cccc(Cl)c2F)C2(C(=O)Nc3cc(Cl)ccc32)C12CCCCC2", "519858-162-T-J1-PDC complex spheroid growth, % test/control", "> 100 nM"),
    ("CCN1CCN(Cc2ccc(Nc3ncc(F)c(-c4cc(F)c5nc(C)n(C(C)C)c5c4)n3)nc2)CC1 + CCN1C(C(=O)NC23CCC(C(=O)O)(CC2)CC3)C(c2cccc(Cl)c2F)C2(C(=O)Nc3cc(Cl)ccc32)C12CCCCC2", "519858-162-T-J1-PDC complex spheroid growth, % test/control", "> 1000 nM"),
    ("NC1CCC(NC2CC2c2ccccc2)CC1 (stereo not given) + CCN1C(C(=O)NC23CCC(C(=O)O)(CC2)CC3)C(c2cccc(Cl)c2F)C2(C(=O)Nc3cc(Cl)ccc32)C12CCCCC2", "519858-162-T-J1-PDC complex spheroid growth, % test/control", "> 100 nM"),
]

Okay, next one:
Under 519858-162-T-J1-PDC complex spheroid growth, % test/control: report IC50 of NC(=O)C(=Cn1cnc(-c2cc(C(F)(F)F)cc(C(F)(F)F)c2)n1)c1cncnc1 + CCN1C(C(=O)NC23CCC(C(=O)O)(CC2)CC3)C(c2cccc(Cl)c2F)C2(C(=O)Nc3cc(Cl)ccc32)C12CCCCC2 .
> 300 nM

The measured values listed here are drawn from PubChem BioAssay AID1963421.
